Reported values of MIC for individual entries
Test system: Aspergillus niger
measurementDescription: Antifungal activity against Aspergillus niger MTCC 2425 by serial dilution method
Assay type: functional
cond: Aspergillus niger, MTCC 2425; read-out: MIC

>  <molecule>
C=CCOC(=O)c1ccc(OC)c(OC)c1

>  <readoutUnit>
µg/mL

>  <MIC>
14

$$$$
>  <molecule>
COc1ccc(C(=O)Nc2ccc([N+](=O)[O-])cc2)cc1OC

>  <readoutUnit>
µg/mL

>  <MIC>
13

$$$$
>  <molecule>
CCCCOC(=O)c1ccc(OC)c(OC)c1

>  <readoutUnit>
µg/mL

>  <MIC>
17

$$$$
>  <molecule>
COc1ccc(C(=O)NN)cc1OC

>  <readoutUnit>
µg/mL

>  <MIC>
15

$$$$
>  <molecule>
CCCCCCCOC(=O)c1ccc(OC)c(OC)c1

>  <readoutUnit>
µg/mL

>  <MIC>
12

$$$$
>  <molecule>
COc1ccc(C(=O)NCc2ccccc2)cc1OC

>  <readoutUnit>
µg/mL

>  <MIC>
12

$$$$
>  <molecule>
COc1ccc(C(=O)OCC(C)C)cc1OC

>  <readoutUnit>
µg/mL

>  <MIC>
12.5

$$$$
>  <molecule>
COc1ccc(C(=O)Nc2ccccc2Cl)cc1OC

>  <readoutUnit>
µg/mL

>  <MIC>
13.5

$$$$
>  <molecule>
COc1ccc(C(=O)Nc2ccc(C)cc2)cc1OC

>  <readoutUnit>
µg/mL

>  <MIC>
12.5

$$$$
>  <molecule>
COc1ccc(C(=O)Oc2cccc3cccnc23)cc1OC

>  <readoutUnit>
µg/mL

>  <MIC>
14

$$$$
>  <molecule>
COc1ccc(C(=O)OC(C)C)cc1OC

>  <readoutUnit>
µg/mL

>  <MIC>
12.5

$$$$
>  <molecule>
COc1ccc(C(=O)OC(C)(C)C)cc1OC

>  <readoutUnit>
µg/mL

>  <MIC>
12

$$$$
>  <molecule>
CCOC(=O)c1ccc(OC)c(OC)c1

>  <readoutUnit>
µg/mL

>  <MIC>
12

$$$$
>  <molecule>
COc1ccc(C(N)=O)cc1OC

>  <readoutUnit>
µg/mL

>  <MIC>
11

$$$$
>  <molecule>
CNC(=O)c1ccc(OC)c(OC)c1

>  <readoutUnit>
µg/mL

>  <MIC>
12.5

$$$$
>  <molecule>
COc1ccc(C(=O)Nc2ccc(Br)cc2)cc1OC

>  <readoutUnit>
µg/mL

>  <MIC>
12.5

$$$$
>  <molecule>
CCCCCCOC(=O)c1ccc(OC)c(OC)c1

>  <readoutUnit>
µg/mL

>  <MIC>
14

$$$$
>  <molecule>
COc1ccc(C(=O)Nc2cccc([N+](=O)[O-])c2)cc1OC

>  <readoutUnit>
µg/mL

>  <MIC>
13

$$$$
>  <molecule>
CCCCCOC(=O)c1ccc(OC)c(OC)c1

>  <readoutUnit>
µg/mL

>  <MIC>
20

$$$$
>  <molecule>
CCCOC(=O)c1ccc(OC)c(OC)c1

>  <readoutUnit>
µg/mL

>  <MIC>
14

$$$$
>  <molecule>
COc1ccc(C(=O)Nc2cccc(Cl)c2)cc1OC

>  <readoutUnit>
µg/mL

>  <MIC>
14

$$$$
>  <molecule>
CCCNC(=O)c1ccc(OC)c(OC)c1

>  <readoutUnit>
µg/mL

>  <MIC>
12

$$$$
>  <molecule>
COc1ccc(NC(=O)c2ccc(OC)c(OC)c2)cc1

>  <readoutUnit>
µg/mL

>  <MIC>
11.5

$$$$
>  <molecule>
CCNC(=O)c1ccc(OC)c(OC)c1

>  <readoutUnit>
µg/mL

>  <MIC>
11.5

$$$$
>  <molecule>
COc1ccc(C(=O)OCc2ccccc2)cc1OC

>  <readoutUnit>
µg/mL

>  <MIC>
14

$$$$
>  <molecule>
COc1ccc(C(=O)Oc2ccccc2)cc1OC

>  <readoutUnit>
µg/mL

>  <MIC>
11.5

$$$$
>  <molecule>
COc1ccc(C(=O)Nc2ccccc2)cc1OC

>  <readoutUnit>
µg/mL

>  <MIC>
13

$$$$
>  <molecule>
COc1ccc(C(=O)O)cc1OC [VERATRIC ACID]

>  <readoutUnit>
µg/mL

>  <MIC>
14

$$$$
>  <molecule>
COc1ccc(C(=O)N(CCO)CCO)cc1OC

>  <readoutUnit>
µg/mL

>  <MIC>
12

$$$$
>  <molecule>
COc1ccc(C(=O)N2CCOCC2)cc1OC

>  <readoutUnit>
µg/mL

>  <MIC>
12

$$$$
>  <molecule>
COC(=O)c1ccc(OC)c(OC)c1 [VERATRIC ACID METHYL ESTER]

>  <readoutUnit>
µg/mL

>  <MIC>
14

$$$$
>  <molecule>
COc1ccc(C(=O)NCCO)cc1OC

>  <readoutUnit>
µg/mL

>  <MIC>
11.5

$$$$
>  <molecule>
COc1ccc(C(=O)Nc2ccccc2C)cc1OC

>  <readoutUnit>
µg/mL

>  <MIC>
11

$$$$
>  <molecule>
COc1ccc(C(=O)N(C)C)cc1OC

>  <readoutUnit>
µg/mL

>  <MIC>
10

$$$$
>  <molecule>
COc1ccc(C(=O)OCCC(C)C)cc1OC

>  <readoutUnit>
µg/mL

>  <MIC>
12.5

$$$$
>  <molecule>
COc1ccc(C(=O)Nc2cccc(O)c2)cc1OC

>  <readoutUnit>
µg/mL

>  <MIC>
12

$$$$
>  <molecule>
COc1ccccc1NC(=O)c1ccc(OC)c(OC)c1

>  <readoutUnit>
µg/mL

>  <MIC>
14

$$$$
>  <molecule>
COc1ccc(C(=O)Nc2cccc(C)c2)cc1OC

>  <readoutUnit>
µg/mL

>  <MIC>
12.5

$$$$
>  <molecule>
COc1ccc(C(=O)Nc2ccc(Cl)cc2)cc1OC

>  <readoutUnit>
µg/mL

>  <MIC>
14.5

$$$$
>  <molecule>
COc1ccc(C(=O)N2CCCCC2)cc1OC

>  <readoutUnit>
µg/mL

>  <MIC>
13

$$$$
